system: p-ERK pathway in H358 cells; experiment: p-ERK pathway inhibition in H358 cells (Advanced phospho-ERK (Thr202/Tyr204) cellular kit, HTRF); type: cell-based; conditions: Homo sapiens, NCI-H358, 1 h compound incubation
reported_endpoint: IC50 (µM)

[A] Cc1nc(N[C@H](C)c2cccc(C(F)F)c2F)c2cn(C3(CF)CC3)c(=O)c(-c3cnn4c3CCC4)c2n1 [Example 170]
[B] Cc1nc(N[C@H](C)c2cccc(C(F)F)c2F)c2cn(C3(CF)CC3)c(=O)c(N3C[C@@H](F)[C@@H](F)C3)c2n1 [Example 107]
Given the listed records, identify the one among A and B with higher IC50. Write down the label of the entry you select.
A
(A: 0.138 µM, B: 0.0469 µM)
